pIC50 for Lysine-specific demethylase 2A (Homo sapiens, UniProt Q9Y2K7), merged from several publications.
// pIC50 is dimensionless: -log10 of concentration (M)

| compound | quantity | reportedValue |
| --- | --- | --- |
| Cl.N[C@@H]1C[C@H]1c1ccc(NC(=O)c2ccc(O)c3ncccc23)cc1 (relative stereo) | pIC50 | 5.11 |
| O=C(O)CCN(O)C(=O)CCCCCCCCC1CCCCCC1 | pIC50 | 4.82 |
| N[C@H]1C[C@@H]1c1ccc(NC(=O)CCCCNC(=O)c2ccc(O)c3ncccc23)cc1 (relative stereo) | pIC50 | 5.09 |
| COC(=O)c1ccnc(-c2cc(C(=O)O)ccn2)c1 | pIC50 | 5.32 |
| Cl.N[C@H]1C[C@@H]1c1ccc(NC(=O)CCCCCNC(=O)c2ccc(O)c3ncccc23)cc1 (relative stereo) | pIC50 | 4.92 |
| O=C(O)CCN(O)C(=O)CCCCCCCCC1CC1 | pIC50 | 5.17 |
| C=CC(=O)N1CCC(c2ccccc2)(c2nnn[nH]2)CC1 | pIC50 | 5.36 |

Now consider a different compound.
Field request: pIC50 | item: `O=C(O)CCN(O)C(=O)CCCCCCCCc1ccccc1`
5.54
